Reference for the values: PubChem BioAssay (NCATS)

Test: qHTS for identification of novel therapeutic agents for treatment of microphthalmiaassociated transcription factor (MiT) renal cell carcinoma (RCC) (AID 1963991);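 further: curves scaled with 100% = DMSO viability and 0% = empty wells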
Conditions: TFE3-RCC viability, CellTiter-Glo, 48 h; measured here: UOK145 Z-AUC; stronger effect = lower value
Results filed as inconclusive are left out.
Quick reference for z-score among some compounds
REPORTED_METRIC: z-score

mol=COc1ccc(C=CC(=O)Nc2ccccc2C(=O)O)cc1OC number=-0.0429
mol=O=C(O)Cc1cccc(OCCCN(Cc2cccc(C(F)(F)F)c2Cl)CC(c2ccccc2)c2ccccc2)c1 number=0.416
mol=C[C@]12C=CC(=O)C=C1CC[C@@H]1[C@@H]2[C@@H](O)C[C@@]2(C)[C@@H]1CC[C@]2(O)C(=O)CO number=-1.47
mol=CCCCC(F)(F)[C@@]1(O)CC[C@H]2[C@H](CC(=O)[C@@H]2CCCCCCC(=O)O)O1 number=0.602
mol=O=C(c1ccc(C(=O)N2CCC(N3CCCC3)CC2)c(Nc2ccccc2)c1)N1CCC(N2CCCC2)CC1 number=0.591
mol=CC(=O)OCC(=O)[C@@]12OC(C)(C)O[C@H]1C[C@H]1[C@@H]3C[C@H](F)C4=CC(=O)C=C[C@]4(C)[C@@]3(F)[C@@H](O)C[C@@]12C number=0.0965
mol=CCNC(=O)[C@H]1O[C@@H](n2cnc3c(N)nc(NCCc4ccc(CCC(=O)O)cc4)nc32)[C@H](O)[C@H]1O number=0.68
mol=COc1cc2c(cc1OC)[C@@H]1Cc3ccc(OC)c(OC)c3CN1CC2 number=0.612
